This collection of values is drawn from paper PMC9582641.

dH by entry:
# experimental target: human Survivin (hSurvivin) (human, UniProt O15392 1-142)
# Sequence (O15392 whole entry): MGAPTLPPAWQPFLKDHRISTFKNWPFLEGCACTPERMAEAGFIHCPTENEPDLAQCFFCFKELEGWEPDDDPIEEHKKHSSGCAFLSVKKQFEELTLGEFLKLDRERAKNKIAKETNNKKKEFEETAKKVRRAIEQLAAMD
# test method notes: ITC
Where no end group is shown, it is not given here. [ ]: non-standard residue; d: D form. Lys(Me3) = C[N+](C)(C)CCCC[C@H](N)C(=O)O; pT = C[C@@H](OP(=O)(O)O)[C@H](N)C(=O)O; Lys(Me2) = CN(C)CCCC[C@H](N)C(=O)O; Lys(Me) = CNCCCC[C@H](N)C(=O)O
measurement label: dH (kcal/mol)

- binder: "ART[Lys(Me3)]QTARKSTG (peptide, UniProt P68431 2-13, looked up) [histone H3 peptide H3K4me3(1-12)]"
  measurement label: "dH"
  u: "kcal/mol"
  observed: -6
- binder: "AR[pT][Lys(Me3)]QTARKSTG (peptide, UniProt P68431 2-13, looked up) [histone H3 peptide H3T3phK4me3(1-12)]"
  measurement label: "dH"
  u: "kcal/mol"
  observed: -4.63
- binder: "AR[pT][Lys(Me2)]QTARKSTG (peptide, UniProt P68431 2-13, looked up) [histone H3 peptide H3T3phK4me2(1-12)]"
  measurement label: "dH"
  u: "kcal/mol"
  observed: -6.25
- binder: "AR[pT][Lys(Me)]QTARKSTG (peptide, UniProt P68431 2-13, looked up) [histone H3 peptide H3T3phK4me1(1-12)]"
  measurement label: "dH"
  u: "kcal/mol"
  observed: -4.69
- binder: "ART[Lys(Me)]QTARKSTG (peptide, UniProt P68431 2-13, looked up) [histone H3 peptide H3K4me1(1-12)]"
  measurement label: "dH"
  u: "kcal/mol"
  observed: -2.68
- binder: "AR[pT]K(Ac)QTARKSTG (peptide, UniProt P68431 2-13, looked up) [histone H3 peptide H3T3phK4ac(1-12)]"
  measurement label: "dH"
  u: "kcal/mol"
  observed: -7.3
- binder: "ART[Lys(Me2)]QTARKSTG (peptide, UniProt P68431 2-13, looked up) [histone H3 peptide H3K4me2(1-12)]"
  measurement label: "dH"
  u: "kcal/mol"
  observed: -2.61
